- system-name: T1, eukaryotically produced human IL-6 (human, UniProt P05231 30-212)
- T1 construct: also called eukIL-6; Euk IL-6
- experimental-details: SPR; purified Fab
measurement-label: koff (s⁻¹)

[
  {
    "binder": "Fab 41E10/35B1 (Fab, V domains shown, VL-shuffled Fab of 17F10) VH: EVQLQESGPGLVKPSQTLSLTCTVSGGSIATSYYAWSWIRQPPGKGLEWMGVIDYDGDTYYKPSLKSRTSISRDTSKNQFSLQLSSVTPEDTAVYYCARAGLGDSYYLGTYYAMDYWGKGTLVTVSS VL: QAVLTQPPSMSGTLGKTLTISCNGTSSDIGSGNYVSWYQQLPGTTPKLLIEGVTTRVSGIPDRFSGSKSDNTASLTISGLQSEDEATYYCASYRETNNVVFGGGTHLTVLG",
    "unit-text": "s⁻¹",
    "quantitative-result": 0.00016
  },
  {
    "binder": "Fab 68F2 (Fab, V domains shown, VL-shuffled Fab of 20A4; for the crystal the Fab was made from 68F2 mAb with papain; also called 68F2 Fab) VH: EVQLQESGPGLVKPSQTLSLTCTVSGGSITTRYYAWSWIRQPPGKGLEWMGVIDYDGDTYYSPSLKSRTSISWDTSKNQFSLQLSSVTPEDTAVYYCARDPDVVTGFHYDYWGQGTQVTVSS VL: QSALTQPPLVSGTPGQTVTISCAGANNDIGTYAYVSWYQQLPGTAPKLLIYKVTTRASGIPSRFSGSKSGNTASLTISGLQSEDEADYYCASYRNFNNAVFGRGTHLTVLG",
    "unit-text": "s⁻¹",
    "quantitative-result": "3.3e-05"
  },
  {
    "binder": "Fab 20A4 (Fab, V domains shown, Fab) VH: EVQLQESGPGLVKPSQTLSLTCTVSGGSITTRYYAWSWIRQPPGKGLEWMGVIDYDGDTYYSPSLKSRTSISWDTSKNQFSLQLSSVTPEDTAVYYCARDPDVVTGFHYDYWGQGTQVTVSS VL: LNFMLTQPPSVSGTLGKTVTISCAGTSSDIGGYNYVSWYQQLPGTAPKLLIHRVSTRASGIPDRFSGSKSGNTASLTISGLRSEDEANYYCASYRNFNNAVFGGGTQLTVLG",
    "unit-text": "s⁻¹",
    "quantitative-result": 0.0003
  }
]
